# protocol.notes: gradient 5% acetonitrile 3 min, to 50% in 2 min, to 85% in 15 min, held 3 min, 100 µL/min
# settings: column: Zorbax Extend-C18 2.1 x 50 mm; eluents: water / acetonitrile, 0.1% formic acid
Label Criterion met when RP-LC retention time < 700 s; otherwise Criterion not met.

Field: example entries. Status: answers known.
| molecule | group |
| --- | --- |
| COc1cccc(N2CCN(c3ccnc(SCC(=O)Nc4ccc(Cl)cc4F)n3)CC2)c1 | Criterion not met |
| CN(C)C(=O)c1ccc2c(c1)nnn2CCNC(=O)Nc1ccc(F)cc1 | Criterion met |

Strictly below 700 s: is that where RP-LC retention time of Cc1cc(C)n2nc(SCC(=O)Nc3ccc(C)c(C)c3)nc2n1 sits? Criterion not met

Now consider COc1ccc(N2CCN(c3cc(SCC(=O)Nc4ccccc4F)ncn3)CC2)cc1 . Criterion not met

* * *

Provide the recorded RP-LC retention time for the entries that follow.
# protocol.notes: gradient 5% acetonitrile 3 min, to 50% in 2 min, to 85% in 15 min, held 3 min, 100 µL/min
# settings: column: Zorbax Extend-C18 2.1 x 50 mm; eluents: water / acetonitrile, 0.1% formic acid
Give your result as the value with the unit written after it.

| compound | val |
| --- | --- |
| Cc1nc(-c2ccc(F)cc2)sc1C(=O)N[C@@H](Cc1c[nH]c2ccccc12)C(=O)O | 838 s |
| CN(Cc1ccoc1)C(=O)Nc1ccc(F)cc1 | 797 s |
| CN(C)S(=O)(=O)c1ccc(-c2nnc(C(=O)NCc3cccc(C(F)(F)F)c3)o2)cc1 | 958 s |

Could you tell me RP-LC retention time for each of these compounds? They are listed below.
1. O=C(NCCC1=CCCCC1)C1CCCN(c2nc3ccccc3n(Cc3ccccc3)c2=O)C1 (stereo not given)
2. CN(C)c1cncnc1-n1cc(NC(=O)CCc2ccccc2)cn1

1: 1310 s; 2: 624 s

* * *

# protocol.notes: gradient 5% acetonitrile 3 min, to 50% in 2 min, to 85% in 15 min, held 3 min, 100 µL/min
# settings: column: Zorbax Extend-C18 2.1 x 50 mm; eluents: water / acetonitrile, 0.1% formic acid
Decide using RP-LC retention time: a value greater than or equal to 700 s is met, a smaller one is not met.

Answered cases to consult:
| compound | group |
| --- | --- |
| CCN1CCN(CCCNC(=O)c2cc(-c3ccc(C)c(C)c3)[nH]c2C)CC1 | not met |
| COc1cccc(-c2noc(CCn3nc(-c4cccc(Cl)c4)ccc3=O)n2)c1OC | met |
| O=C(c1ccc2c(c1)OCO2)N1CCC(c2ccncc2)CC1 | not met |
| CCCCNC(=O)C(=O)NCC1OCCc2ccccc21 (stereo not given) | met |
| CCOC(=O)c1cccc(Nc2c(-c3ccccc3)nc3cnccn23)c1 | met |

Pending compound:
Please check the record CCCNS(=O)(=O)c1ccc(Cl)c(-c2nnc(-c3ccccc3)o2)c1 and state if its RP-LC retention time is at or above 700 s. met

* * *

# protocol.notes: gradient 5% acetonitrile 3 min, to 50% in 2 min, to 85% in 15 min, held 3 min, 100 µL/min
# settings: column: Zorbax Extend-C18 2.1 x 50 mm; eluents: water / acetonitrile, 0.1% formic acid
Binary classification by RP-LC retention time, with 700 s as an inclusive lower bound for yes (1); all other cases are no (0).

The examples below pair each entry with its known result.
| compound | group |
| --- | --- |
| Cc1noc(CNC(=O)C2CCN(C(=O)C(C)(C)Oc3ccc(Cl)cc3)CC2)n1 | yes (1) |
| O=C(COc1ccc(Cl)cc1)Nc1nnc(SCC(=O)NC2CCCC2)s1 | yes (1) |
| Cc1cc(C(=O)Nc2cnc(N3CCCCC3)nc2)no1 | yes (1) |

Turning now to a further compound:
hey, is RP-LC retention time for this one >= 700 s? CCCNC(=O)C1CCCN(c2ccc(SCC(=O)Nc3c(C)cccc3CC)nn2)C1 (stereo not given) no (0)

* * *

# protocol.notes: gradient 5% acetonitrile 3 min, to 50% in 2 min, to 85% in 15 min, held 3 min, 100 µL/min
# settings: column: Zorbax Extend-C18 2.1 x 50 mm; eluents: water / acetonitrile, 0.1% formic acid
measured.endpoint: RP-LC retention time (s)
One number for each entry, in s.

Examples with their reported RP-LC retention time follow.
| molecule | RP-LC retention time / s |
| --- | --- |
| COc1ccc(Nc2c(C(=O)N3CCCCC3C)cnc3nc(C)ccc23)cc1 (centres undefined) | 639 |
| CCCN1C(=O)COc2ccc(-c3noc(Cc4cccc(OC)c4)n3)cc21 | 1080 |
| Cn1ccc2cc(S(=O)(=O)N3CCC(C(=O)N4CCN(Cc5ccccc5)CC4)CC3)ccc21 | 671 |
| CCCn1cc(C(=O)NCC(=O)OCC)c(S(=O)(=O)N2CCN(c3ccccc3Cl)CC2)n1 | 1090 |
| CCCc1noc(-c2ccc(-n3cnc(C(=O)NC4CCCCCC4)c3)nc2)n1 | 1070 |
| CN1CC2(CCCC2)N(C(=O)COc2ccc(Cl)cc2)CC1=O | 799 |
| O=C(Nc1ccc(Cl)cc1F)N1CCC(n2c(-c3ccco3)nc3cccnc32)C1 (centres undefined) | 827 |
| O=S(=O)(c1cccc(C(F)(F)F)c1)N1CCC(CN2CCCCC2)CC1 | 680 |

Which RP-LC retention time value belongs to Cc1cccc(NC(=O)Nc2ccc3nnc(C)n3c2)c1 ? 747

* * *

# protocol.notes: gradient 5% acetonitrile 3 min, to 50% in 2 min, to 85% in 15 min, held 3 min, 100 µL/min
# settings: column: Zorbax Extend-C18 2.1 x 50 mm; eluents: water / acetonitrile, 0.1% formic acid
measured.endpoint: RP-LC retention time (s)
Numbers only, in s.

| compound | RP-LC retention time, s |
| --- | --- |
| CN(CCNC(=O)C1c2ccccc2C(=O)N(C)C1c1cccs1)C1CCCCC1 (stereo not given) | 706 |
| COc1cccc(CNC(=O)c2cc3c(-c4cccs4)nn(-c4ccccc4)c3n2C)c1 | 1120 |
| O=C(Nc1ccccc1C(F)(F)F)N1CCC(n2cnc3cccnc32)CC1 | 657 |
| Cn1nccc1C(=O)N1CC(c2nc(CCOCC3CCCC3)no2)C1 | 824 |

Dear colleague, could you send me RP-LC retention time for each of the items below? Thanks.
1. Cc1cc(C)c(NC(=O)Cn2c(N(C)Cc3ccccc3)nc(C)cc2=O)c(C)c1
2. CCOC(=O)N1CCN(c2cc(C(=O)O)c3cc(NC(=O)c4ccccc4F)ccc3n2)CC1
3. O=C(Nc1cccc(-c2nnc3n2CCCC3)c1)c1ccn[nH]1
4. Cc1ccc2c(C(=O)N3CCN(C4CCCCC4)CC3)cc(NC(=O)C3CCC3)cc2n1

860
628
595
556

For each of the items listed, what is its RP-LC retention time?
1. COCCCNC(=O)C1c2ccccc2C(=O)N1Cc1ccccc1 (stereo not given)
2. CN(C(=O)Cn1cccc1-c1nc(-c2ccccc2)no1)c1ccccc1

1: 704; 2: 1100

* * *

# protocol.notes: gradient 5% acetonitrile 3 min, to 50% in 2 min, to 85% in 15 min, held 3 min, 100 µL/min
# settings: column: Zorbax Extend-C18 2.1 x 50 mm; eluents: water / acetonitrile, 0.1% formic acid
measured.endpoint: RP-LC retention time (s)
Numbers only, in s.

Here is how some molecules turned out for RP-LC retention time.
| molecule | RP-LC retention time (s) |
| --- | --- |
| CCCn1cc(CCNS(=O)(=O)c2cccc3nsnc23)c2cccnc21 | 791 |
| CC1(C)CC(=O)C2=C(C1)N(CCCN1CCOCC1)C(=O)C2(NC(=O)c1ccccc1)C(F)(F)F (centres undefined) | 634 |
| CCc1noc(NC(C)=O)c1-c1ccc(C)c(S(=O)(=O)Nc2ccc(OC)c(OC)c2)c1 | 840 |
| COc1ccc(NC(=O)c2cnc(N3CCN(c4ccccc4F)CC3)nc2N)cc1 | 684 |
| CC(C)c1noc(CC2CCN(C(=O)c3ccsc3)CC2)n1 | 819 |

Go through the list and state RP-LC retention time for each entry.
1. CCOc1ccc(N2CC(c3nc(-c4ccc(C)cc4)no3)CC2=O)cc1 (centres undefined)
2. O=C(Nc1cnn(-c2ncc(N3CCSCC3)cn2)c1)C1CCCO1 (centres undefined)
3. Cc1cc(Cl)ccc1NC(=O)c1cccn1-c1cccnc1
4. O=C(c1cnccn1)N1CC(c2nc(CCOCC3CCCC3)no2)C1

1: 1090; 2: 665; 3: 798; 4: 601

Need RP-LC retention time for each of these molecules.
1. CCCCN1C(=O)C(C)(C(=O)Nc2cc(Cl)ccc2OC)Oc2cccnc21 (centres undefined)
2. CCCOc1ccc(CN2C[C@@H](CO)[C@H](c3ccccn3)C2)cc1
3. CCCn1ccc2sc(C)c(C(=O)NC3CCCCCC3)c2c1=O
4. CCc1ccc(S(=O)(=O)N2C[C@@H](F)C[C@H]2C(=O)N2CCc3ccccc3C2)cc1
5. CC(C)CN(C1CCN(C)CC1)C1CN(C(=O)c2cccs2)C1
6. Cn1nc(N2CCCC(NC(=O)c3cc4cc(Cl)ccc4[nH]3)C2)ccc1=O (centres undefined)

[1230, 578, 897, 998, 586, 827]

// each listed molecule needs a value for RP-LC retention time
1. CCC1Oc2ccc(S(=O)(=O)N3CCC(C(=O)N4CCCCCC4)CC3)cc2NC1=O (centres undefined)
2. COc1cccc(NC(=O)Cn2nc3c(N4CCCCCC4)nccn3c2=O)c1
3. Cn1nc(-c2nnc(-c3ccccc3Cl)o2)c2c1CCN(C(=O)COc1ccc(F)cc1)C2

[842, 700, 891]

Can you share its RP-LC retention time? I mean this molecule: Cn1c(=O)sc2cc(S(=O)(=O)N3CCC(C(=O)NCc4ccc(F)cc4)CC3)ccc21 818

Where do these numbers come from? They come from the METLIN SMRT retention time set (Domingo-Almenara et al. 2019).
